The measurements presented in this section are drawn from paper PMC5223195.

Entries below carry reported MIC on Mycobacterium avium.
readout: MIC

smiles_data=COc1ccc2ccc(OCCCCCCCCNCCc3ccc(Br)cc3)cc2c1 readout=MIC result="4 µg/mL"
smiles_data=COc1ccc2ccc(OC/C=C/COCCCNCCc3ccc(F)cc3)cc2c1 readout=MIC result="8 µg/mL"
smiles_data=COc1ccc2ccc(OCCCCCCCCNCCc3ccc(F)cc3)cc2c1 readout=MIC result="2 µg/mL"
smiles_data=COc1ccc2ccc(OCCCCCCCCNCCc3ccc(Cl)cc3)cc2c1 readout=MIC result="4 µg/mL"
smiles_data=Fc1ccc(CCNCCCOc2ccc3ccc(OCCCNCCc4ccc(F)cc4)cc3c2)cc1 readout=MIC result="3 µg/mL"

* * *

tested on: MRSA USA400; experiment: MIC against MRSA USA400; assay type: cell-based, Staphylococcus aureus; settings: Staphylococcus aureus; TSB, 37 °C, 18–20 hours; read-out: MIC, Staphylococcus aureus isolate USA400
Recorded MIC values for a group of compounds are listed next.
readout: MIC (µg/mL)

compound="CN(C)c1ccc(O)c2c1C[C@H]1C[C@H]3[C@H](N(C)C)C(O)=C(C(N)=O)C(=O)[C@@]3(O)C(O)=C1C2=O [Minomycin, Minocycline, reference compound]" readout=MIC comparison_operator== readout_number=0.5
compound="COc1ccc2ccc(OCCCCCCCCNCCc3ccc(F)cc3)cc2c1 [3a]" readout=MIC comparison_operator== readout_number=4
compound="Clc1ccc(CCNCCCCCCCCOc2ccc3cc(Br)c(OCc4ccccc4)cc3c2)cc1 [6d]" readout=MIC comparison_operator=> readout_number=128
compound="CC(=O)NC[C@H]1CN(c2ccc(N3CCOCC3)c(F)c2)C(=O)O1 [Linezolid, reference compound]" readout=MIC comparison_operator== readout_number=1
compound="Fc1ccc(CCNCCCOc2ccc3ccc(OCCCNCCc4ccc(F)cc4)cc3c2)cc1 [7c]" readout=MIC comparison_operator== readout_number=1
compound="COc1ccc2ccc(OCCCCCCCCN3CCCCC3)cc2c1 [compound 2]" readout=MIC comparison_operator== readout_number=16
compound="Brc1ccc(CCNCCCCCCCCOc2ccc3cc(Br)ccc3c2)cc1 [5c]" readout=MIC comparison_operator== readout_number=16

* * *

Recorded MIC values against all Gram-positive bacteria (range) values for a group of compounds are listed next.
system: Gram-positive bacteria; assay: MIC against Gram-positive bacteria (summary); assay type: cell-based; settings: range over all tested Gram-positive bacteria
readout: MIC values against all Gram-positive bacteria (range)

smiles_data=Fc1ccc(CCNCCCOc2ccc3ccc(OCCCNCCc4ccc(F)cc4)cc3c2)cc1 result="0.5 to 16 µg/mL"
smiles_data=COc1ccc2ccc(OCCCCCCCCNCCc3ccc(Br)cc3)cc2c1 result="0.5 to 16 µg/mL"
smiles_data=COc1ccc2ccc(OCCCCCCCCNCCc3ccc(F)cc3)cc2c1 result="0.5 to 16 µg/mL"
smiles_data=COc1ccc2ccc(OCCCCCCCCNCCc3ccc(Cl)cc3)cc2c1 result="0.5 to 16 µg/mL"

* * *

system: MRSA USA200; assay: MIC against MRSA USA200; assay type: cell-based, Staphylococcus aureus; conditions: Staphylococcus aureus; TSB, 37 °C, 18–20 hours; read-out: MIC, Staphylococcus aureus isolate USA200
readout: MIC

compound="COc1ccc2ccc(OCCCCCCCCNCCc3ccc(Br)cc3)cc2c1 [3c]" readout=MIC result="2 µg/mL"
compound="CC(=O)NC[C@H]1CN(c2ccc(N3CCOCC3)c(F)c2)C(=O)O1 [Linezolid, reference compound]" readout=MIC result="1 µg/mL"
compound="Fc1ccc(CCNCCCCCCCCOc2ccc3cc(Br)ccc3c2)cc1 [5a]" readout=MIC result="4 µg/mL"
compound="C=CCN(C)CCCCCCCCOc1ccc2cc(Br)c(OCc3ccccc3)cc2c1 [6a]" readout=MIC result="8 µg/mL"
compound="COc1ccc2ccc(OCCCCCCCCNCCc3ccc(Cl)cc3)cc2c1 [3b]" readout=MIC result="2 µg/mL"
